What solubility at 16 h was measured for each of the following?
protocol description: Solubility test
Format: physicochemical
conditions used: artificial intestinal juice (phosphate buffer) with 1% DMSO, fassgf or other biorelevant, kinetic from dmso stock, artificial intestinal juice pH 6.8, 16 hours at 25° C.

Which value of solubility at 16 h has been reported for COCCOc1cnc(C(=O)Nc2cccc(CNc3cccnc3N)c2)cn1 [Compound 478] in the records? > 50 µM

Which value of solubility at 16 h has been reported for COc1cnc(C(=O)Nc2cccc(CNc3cccnc3N)c2)cn1 [Compound 473] in the records? > 50 µM

* * *

property measured: IC50

Fill in the recorded IC50 for this compound, with CYP2C19 (Homo sapiens (Human), UniProt P33261) as test system: COc1cnc(C(=O)Nc2cccc(CNc3cccnc3N)c2)cn1 > 20 µM

Fill in the recorded IC50 for this compound, with CYP2C19 (Homo sapiens (Human), UniProt P33261) as test system: CC#CCOc1cnc(C(=O)Nc2cccc(C3(C)CC(=O)N(C)C(N)=N3)c2)cn1 (centres unmarked) > 20 µM
